Target: T1, UNK ZnF1-6 (called full-length) (human, UniProt Q9C0B0 30-357)
T1 sequence: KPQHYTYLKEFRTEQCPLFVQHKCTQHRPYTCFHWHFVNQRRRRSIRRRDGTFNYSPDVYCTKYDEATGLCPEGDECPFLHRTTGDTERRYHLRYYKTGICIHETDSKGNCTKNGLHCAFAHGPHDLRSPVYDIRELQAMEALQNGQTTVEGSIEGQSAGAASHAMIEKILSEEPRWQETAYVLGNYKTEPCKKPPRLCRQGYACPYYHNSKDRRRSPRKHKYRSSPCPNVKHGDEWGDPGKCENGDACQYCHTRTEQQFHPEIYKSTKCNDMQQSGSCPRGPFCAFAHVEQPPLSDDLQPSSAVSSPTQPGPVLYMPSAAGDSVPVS
Assay: nsRBNS (natural sequence RNA bind-n-seq); RBNS binding buffer (assumed for nsRBNS): 25 mM Tris pH 7.5, 150 mM KCl, 3 mM MgCl2, 0.01% Triton X-100, 500 ug/ml BSA, 20 U/ml SUPERase-In, 4 C; UNK is unkempt and MSI1 is Musashi-1; names of the RNAs are library labels; protein concentration not given here; high values mean tight binding
Over roughly 5,800 sequences, “enrichment r” has its median near 0.68; the highest 2% begin near 11. The full list was thinned out, with the highest values kept by preference.
readout.kind: log10(binding signal) (log10 of the value in enrichment R)
Units before log transform: enrichment R; reported quantity: binding signal; transform: log10.

So what does the record say about log10(binding signal) for chr8:80500255:80500365:+|CDS|ENSG00000205189|unk|FALSE|unique (ssRNA) RNA: GGGAGUUCUACAGUCCGACGAUCGAAAAACCAAACUACAAAAAGAUUUAUUUAUAAUAUUCCACCUAAUAAUGAAACGAAUUUAGAAGAUUGCUCAGUAAUGCAGCCACCUGUUGCCUAUCCAGAAGAAAAUACACUACUCAUCAACAGAGGAUUGAGCAUCA ?
0.97

Record request: log10(binding signal) value, item chr2:74214837:74214938:+|3pUTR|ENSG00000065911|msi1_unk|FALSE|overlapping (ssRNA) RNA: GGGAGUUCUACAGUCCGACGAUCCUGUCCUUUUGAGGCUUAGUCAGUUUAUUGGGAAAAUGUUUAGGAUUAUUCCUUGCUAUUAGUACUCAUUUUAUGUAUGUUACCCUUCAGUAAGUUCUCCCCAUUUUAGUUUUCUAGGACCAACAGAGGAUUGAGCAUCA
1.09

# lookup: log10(binding signal) of chr16:48080881:48083801:-|three_prime_utr|ENSG00000140798|control|control|control (ssRNA) RNA: GGGAGUUCUACAGUCCGACGAUCUGAGUUUGACAAGCCUGAAGUCCUUGCAGAGAAGCCAGAUUCUGCAUUUGCGAUGUUACUAGCAGCAGAAGUCAGAUUGUAGAGGUCCUGGCGGCUGAUUCUAGAGGAGGAAGAGGCUCUCAACAGAGGAUUGAGCAUCA
0.06

Consider the binder chr5:172042892:172042993:-|3pUTR|ENSG00000072786|msi1|FALSE|unique (ssRNA) RNA: GGGAGUUCUACAGUCCGACGAUCGAUUCUCCCGCUUCAACCUUGAGUAGCUGGGACGACAGAUACAUGCUACUGCACCCAGCUAGGUUAAGGUUCUGUAUACUCUGUCUUUCUAAAGCAAUUCCCUGGAAAUUUUCUCAACAUCAACAGAGGAUUGAGCAUCA and give its measured log10(binding signal).
-0.31

Given chr10:113908677:113908778:+|3pUTR|ENSG00000196865|unk|FALSE|bound_elsewhere (ssRNA) RNA: GGGAGUUCUACAGUCCGACGAUCAGCUAUGCUCCUUACUUACUUCUUUUAUUAUAAACAAAUUCCUUUGCUUUGGCUGAUACUAGCUGAGUCAUUGAUCAUCAUUGGUACCAUGAUAUUGUAAUCUAUGCUGCUAUUUGGCACCAACAGAGGAUUGAGCAUCA , state its recorded log10(binding signal).
0.59

Item under review: ENSG00000136451:be:win_3801|3pUTR|ENSG00000136451|bound_else_gene|NA|bound_elsewhere_windowed (ssRNA) RNA: GGGAGUUCUACAGUCCGACGAUCACCCCUAAGCUAGAAUGUGGUUGUCAGAACCCUGAAAGUAUUAGUUCUAAAAAAAAAAAGAUAUAUACUAGAAGUAAUUGUUUUAUCAAUUCAUUGUAUAAUAAACAGGAGUGAGACUUCCAACAGAGGAUUGAGCAUCA . Reported log10(binding signal)?
0.38

Given the binder chr8:30843048:30843149:-|CDS|ENSG00000133863|unk|FALSE|unique (ssRNA) RNA: GGGAGUUCUACAGUCCGACGAUCGGAUACUAUAAUUGCUUCCAGAAAGUCAGAUCAUCCAAUAAACGAAGCAACAAUUAGCAUAGAAAAUUCUAAAUUUAACAGUAAUUUGCUUGCACACCCAGAUAUUUGUUGUAUUAGUGACAACAGAGGAUUGAGCAUCA , what is its reported log10(binding signal)?
1.15

Which log10(binding signal) is listed for chr1:178849534:178851128:-|three_prime_utr|ENSG00000116194|control|control|control (ssRNA) RNA: GGGAGUUCUACAGUCCGACGAUCCUACACAGAAAGUUUUUAAAAUGAAUUUUACCGUAACUAUAAAAGGGAACCUAUAAAUGUAGUUUCAUCUGUCGUCAAUUACUGCAGAAAAUUAUGUGUAUCCACAACCUAGUUAUUUUACAACAGAGGAUUGAGCAUCA ?
0.41

Find the recorded log10(binding signal) belonging to chr8:22006364:22006465:+|3pUTR|ENSG00000130227|msi1|total|mutant (ssRNA) RNA: GGGAGUUCUACAGUCCGACGAUCUGUUGCUGCCCGUUGUACACAUCUCCCGUUCAGCUCUUGCCCACGGGACACUCAUCAAUCCGGUUUUAUUUUUAUUUCUUUCCUCUACCCCCAGAAACAAGCCUGUUAAUUUUUUUUCCUCAACAGAGGAUUGAGCAUCA and report it.
0.47

Which log10(binding signal) value is on record for chr6:15520333:15520434:+|3pUTR|ENSG00000008083|unk|FALSE|unique (ssRNA) RNA: GGGAGUUCUACAGUCCGACGAUCCUUGCUGUAGGAUUCAAGCUGUCUUUGCACUAGCUCUAAAGAAGAUUUUCUUCUGGUUUUAGAGAACUAAUUUUGUUUUAGCAUUAAACUGUUGAACUUUUUUUUGUACUUAGAAAACCUCAACAGAGGAUUGAGCAUCA ?
0.54

Endpoint output: log10(binding signal) of chr13:51761002:51761103:+|3pUTR|ENSG00000139668|unk|FALSE|unique (ssRNA) RNA: GGGAGUUCUACAGUCCGACGAUCACGGCAAGAUUGUAAUCCUGCUGUAUUCCUCGCCCUCUGUAUUCUAUCCCUUUAAAAACUAGAUAUUUAAACAUUUUAUCCUAAUGUGUUUCAUCAGAACACUUUGCACACUUUCUUACUCAACAGAGGAUUGAGCAUCA . Value?
1.45

Quick check: log10(binding signal) of chr1:165890246:165890361:+|CDS|ENSG00000143179|unk|FALSE|unique (ssRNA) RNA: GGGAGUUCUACAGUCCGACGAUCCUCCUGGGGCAGAAUGAGGUGGACUAUCGCCAGAAGCAGGUGGUCAUCCUGAGCCAGGAUAGCUUCUACCGUGUCCUUACCUCGGAGCAGAAGGCCAAAGCCCUGAAGGGCCAGUUCAACCAACAGAGGAUUGAGCAUCA ?
-0.13

Return reported log10(binding signal); argument: chr1:17407970:17408071:-|3pUTR|ENSG00000179051|msi1|FALSE|unique (ssRNA) RNA: GGGAGUUCUACAGUCCGACGAUCGGGUACCGUUCUGCUGACCCAGCUCCCUUUAGUCACGUUUGCUUGGCUCUGGUACCAAAUAGUUGGGAUUACCGAAGAGUCCCCUUCCUUGCGUGUCAGCACGGAUGCUGUGACUGCCACCAACAGAGGAUUGAGCAUCA
0.30

Entry source: paper PMC12136788
